- tested target: T1, cynomolgus PD-L1-His (Sino Biological, Cat. 90251-C08H) (cynomolgus, UniProt Q9NZQ7 19-238 (human entry))
- T1 construct: Bought protein; also called Cyno PD-L1; Cynomolgus PD-L1 ECD-His; not shown: His tag
- T1 sequence (Q9NZQ7 other isoform, or with tags, fused parts or gaps C08H C08H limits assumed): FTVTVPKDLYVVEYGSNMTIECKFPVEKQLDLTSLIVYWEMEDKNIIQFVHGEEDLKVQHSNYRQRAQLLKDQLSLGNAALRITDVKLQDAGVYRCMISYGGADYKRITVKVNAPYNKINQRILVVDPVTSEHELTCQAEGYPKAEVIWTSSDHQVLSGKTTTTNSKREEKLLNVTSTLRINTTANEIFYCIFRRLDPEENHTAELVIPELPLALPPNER
- procedure summary: ELISA, coated cyno PD-L1-His
reported metric: pEC50
Give bare numbers, as −log10 of the molar value.

binder	test result
56H3 (antibody, human IgG1, V domains shown) VH: QEQLVESGGGLVQPEGSLTLTCTASEFSFSNNYYMSWVRQAPGKGLEWLGSIGIGSGITDYASWAKGRFTISKASSTTVTLQMTTLTAADTAIYFCARWTSGGGGFGLWGPGTLVTVSS VL: QVLTQTSSPVSAAVGGTVTINCQSSQTIYSDYLFWYQQKPGQPPKLLIYQTSTLASGVPSRFSGSGSGTQFTLTISGVQCDDAATYYCQGYYSGYIWTFGGGTEVVVN	11.12

Here is another binder to look at.
The reported pEC50 of the binder 27A2 (antibody, human IgG1, V domains shown) VH: QEQLEESGGGLVQPEGSLTLTCTASGFSFSSNHYMSWVRQAPGKGLEWIGSIGVGSGITDYASWAKGRFTISKASSTTLTLQMTTLTAADTAIYFCARWTSGGGGFGLWGPGTLVTVSS VL: QVLTQTSSPVSAAVGGTVTINCQSSQTIYSDYLFWYQQTPGQPPKLLIYQTSTLASGVPSRFKGSGSGTEFTLTISEIQCDDAATYYCQGYYSGYIWTFGGGTEVVVR was 10.95
